Tested on: L6
ASSAY_EXPLANATION: Cytotoxicity against rat L6 cells assessed as cell viability after 70 hrs by Alamar blue assay
Type: cell-based
CONDITION_SET: L6, 70 h
# IC50 per entry

>  <STRUCTURE>
N=C(N)c1cccc(-c2cc(-c3cc(C(=N)N)ccn3)on2)c1

>  <IC50>
> 180 µM

$$$$
>  <STRUCTURE>
N=C(N)c1cncc(-c2cc(-c3cncc(C(=N)N)c3)on2)c1

>  <IC50>
> 180 µM

$$$$
>  <STRUCTURE>
N=C(N)c1ccc(-c2cc(-c3ccc(C(=N)N)cn3)on2)nc1

>  <IC50>
> 180 µM

$$$$
>  <STRUCTURE>
Cl.Cl.N=C(N)c1cccc(-c2cc(-c3cncc(C(=N)N)c3)on2)c1

>  <IC50>
> 180 µM

$$$$
>  <STRUCTURE>
Cl.Cl.N=C(N)c1ccc(-c2cc(-c3cccc(C(=N)N)c3)on2)nc1

>  <IC50>
121 µM

$$$$
>  <STRUCTURE>
Cl.Cl.N=C(N)c1cccc(-c2cc(-c3ccc(C(=N)N)nc3)no2)c1

>  <IC50>
2.08 µM

$$$$
>  <STRUCTURE>
Cl.Cl.N=C(N)c1ccc(-c2cc(-c3cc(C(=N)N)ccn3)on2)cc1

>  <IC50>
149 µM

$$$$
>  <STRUCTURE>
Cl.Cl.N=C(N)c1ccc(-c2cc(-c3ccc(C(=N)N)cn3)on2)cc1

>  <IC50>
35.9 µM

$$$$
>  <STRUCTURE>
N=C(N)c1cncc(-c2cc(-c3cccc(C(=N)N)c3)on2)c1

>  <IC50>
> 180 µM

$$$$
>  <STRUCTURE>
C[C@@H]1CC[C@H]2[C@@H](C)C(=O)O[C@@H]3O[C@@]4(C)CC[C@@H]1[C@]32OO4

>  <IC50>
> 180 µM

$$$$
>  <STRUCTURE>
N=C(N)c1cccc(-c2cc(-c3cc(C(=N)N)ccn3)no2)c1

>  <IC50>
130 µM

$$$$
>  <STRUCTURE>
Cl.Cl.N=C(N)c1ccc(-c2cc(-c3cncc(C(=N)N)c3)no2)cc1

>  <IC50>
4.32 µM

$$$$
>  <STRUCTURE>
Cl.Cl.N=C(N)c1ccc(-c2cc(-c3cccc(C(=N)N)c3)no2)nc1

>  <IC50>
115 µM

$$$$
>  <STRUCTURE>
Cl.Cl.N=C(N)c1ccc(-c2cc(-c3cc(C(=N)N)ccn3)no2)cc1

>  <IC50>
71.2 µM

$$$$
>  <STRUCTURE>
N=C(N)c1ccc(-c2cc(-c3cc(C(=N)N)ccn3)on2)nc1

>  <IC50>
> 180 µM

$$$$
>  <STRUCTURE>
N=C(N)c1ccnc(-c2cc(-c3cc(C(=N)N)ccn3)on2)c1

>  <IC50>
> 180 µM

$$$$
>  <STRUCTURE>
Cl.N=C(N)c1cncc(-c2cc(-c3ccc(C(=N)N)nc3)no2)c1

>  <IC50>
2.11 µM

$$$$
>  <STRUCTURE>
Cl.Cl.N=C(N)c1ccc(-c2cc(-c3ccc(C(=N)N)cn3)no2)cc1

>  <IC50>
46.2 µM

$$$$
>  <STRUCTURE>
Cl.Cl.N=C(N)c1ccc(-c2cc(-c3cncc(C(=N)N)c3)on2)cc1

>  <IC50>
4.37 µM

$$$$
>  <STRUCTURE>
Cl.Cl.N=C(N)c1ccc(-c2cc(-c3ccc(C(=N)N)nc3)no2)cc1

>  <IC50>
2.49 µM

$$$$
>  <STRUCTURE>
Cl.Cl.N=C(N)c1cccc(-c2cc(-c3ccc(C(=N)N)nc3)on2)c1

>  <IC50>
1.4 µM

$$$$
>  <STRUCTURE>
Cl.Cl.N=C(N)c1ccc(-c2cc(-c3ccc(C(=N)N)nc3)on2)cc1

>  <IC50>
1.76 µM

$$$$
>  <STRUCTURE>
N=C(N)c1ccc(-c2cc(-c3cc(C(=N)N)ccn3)no2)nc1

>  <IC50>
> 180 µM

$$$$
>  <STRUCTURE>
Cl.Cl.N=C(N)c1ccc(-c2cc(-c3ccc(C(=N)N)nc3)on2)cn1

>  <IC50>
2.46 µM

$$$$
>  <STRUCTURE>
Cl.Cl.N=C(N)c1cncc(-c2cc(-c3ccc(C(=N)N)nc3)on2)c1

>  <IC50>
4.91 µM

$$$$

----------
ASSAY_EXPLANATION: Selectivity index, ratio of IC50 for rat L6 cells to IC50 for chloroquine/pyrimethamine-resistant Plasmodium falciparum K1 infected in human red blood cells
Assay type: toxicity, cell-based
CONDITION_SET: read-out: Ratio IC50

>  <STRUCTURE>
N=C(N)c1cncc(-c2cc(-c3cccc(C(=N)N)c3)on2)c1

>  <selectivity ratio>
> 10000

$$$$
>  <STRUCTURE>
N=C(N)c1cccc(-c2cc(-c3cc(C(=N)N)ccn3)on2)c1

>  <selectivity ratio>
> 7230

$$$$
>  <STRUCTURE>
N=C(N)c1cncc(-c2cc(-c3cncc(C(=N)N)c3)on2)c1

>  <selectivity ratio>
> 1250

$$$$
>  <STRUCTURE>
N=C(N)c1ccc(-c2cc(-c3cc(C(=N)N)ccn3)no2)nc1

>  <selectivity ratio>
> 2430

$$$$

----------
ASSAY_EXPLANATION: Selectivity index, ratio of IC50 for rat L6 cells to IC50 for Trypanosoma brucei rhodesiense STIB900
Format: toxicity, cell-based
CONDITION_SET: read-out: Ratio IC50
Reported selectivity ratio values are given for each entry in this list.

>  <STRUCTURE>
N=C(N)c1cncc(-c2cc(-c3cccc(C(=N)N)c3)on2)c1

>  <selectivity ratio>
> 309

$$$$
>  <STRUCTURE>
N=C(N)c1ccc(-c2cc(-c3cc(C(=N)N)ccn3)on2)nc1

>  <selectivity ratio>
> 53

$$$$
>  <STRUCTURE>
N=C(N)c1ccnc(-c2cc(-c3cc(C(=N)N)ccn3)on2)c1

>  <selectivity ratio>
> 32

$$$$
>  <STRUCTURE>
N=C(N)c1ccc(-c2cc(-c3ccc(C(=N)N)cn3)on2)nc1

>  <selectivity ratio>
> 302

$$$$
>  <STRUCTURE>
Cl.Cl.N=C(N)c1ccc(-c2cc(-c3ccc(C(=N)N)cn3)no2)cc1

>  <selectivity ratio>
915

$$$$
